tested on: CAKI-1 renal; experiment: NCI tumour cell line growth inhibition, 48 h
Provide the reported TGI of each item.

Query O=C(O)CCC1c2[nH]c3ccccc3c2CCN1Cc1ccccc1 (stereo not given) yields TGI of > 100 µM

Query `C[C@]12CC[C@@H]3c4ccc(OC(=O)N(CCCl)CCCl)cc4CC[C@H]3[C@@H]1CC[C@@H]2OP(=O)(O)O` yields TGI of > 100 µM

Query [O-][N+]1=C2CCC/C(=N/O)C2(O)C2CCCCC21N1CCOCC1 (stereo not given) yields TGI of > 100 µM

Query `COC(=O)c1cccc(NC(=O)c2ccc(NC3=C(Cl)C(=O)N(Cc4ccccc4)C3=O)cc2)c1` yields TGI of 3.14 µM

Query O=C(NN1C(=O)CSC1c1c(Cl)cccc1Cl)C(O)c1ccccc1 (stereo not given) yields TGI of > 100 µM

Query `Cc1cnc(-c2ccc(-c3ccc(NC(=O)Nc4c(F)cc(F)cc4F)cc3F)c3c2C(=O)NC3)[nH]1` yields TGI of 27.5 µM

Query O=C(OCC(OC(=O)c1ccccc1)C1CC(C2(O)CCCCC2)C(=O)O1)c1ccccc1 (stereo not given) yields TGI of > 25 µM

Query `Cc1cc(C)c(/C=N/NS(=O)(=O)c2ccccc2)c(C)c1` yields TGI of > 100 µM

Query `NC1(C(=O)N[C@@H](CCO)c2ccc(Cl)cc2)CCN(c2ncnc3[nH]ccc23)CC1` yields TGI of > 100 µM

Query `Cc1cccc(N=N/C(=N\NC(=O)c2cc(Cl)ccc2O)c2ccc(N(CCC#N)CCC#N)cc2C)c1` yields TGI of > 100 µM

Query `CN1C2(c3ccccc3)C(C(=O)c3ccccc3)=C(C(=O)c3ccccc3)C1(c1ccccc1)c1c(-c3ccccc3)sc(-c3ccccc3)c12` yields TGI of > 100 µM

Query `CC(=O)Nc1cc2c3c(cccc3c1)-c1ccccc1-2` yields TGI of 23.8 µM

Query c1ccc(CC(Nc2cccnc2)c2ccccc2)cc1 (stereo not given) yields TGI of > 100 µM

Query `O=C1c2ccccc2C(=O)N1NC1=NCCN1` yields TGI of > 100 µM

Query `c1cc(CSc2ncnc3nc[nH]c23)ccn1` yields TGI of > 100 µM

Query CC[C@@H](C)/C=C(C)/C=C/C(=O)c1c(O)c(-c2ccc(O)cc2)cn(OC2CC(=O)CCC(C)OC(=O)CC2O)c1=O (stereo not given in full) yields TGI of 3 µM

Query `Cc1[nH]nc(C(=O)N/N=C/c2ccccc2Cl)c1N=NN(C)C` yields TGI of > 100 µM

Query `COc1ncc(-c2ccc3nccc(C#CCCCCC(=O)NO)c3c2)cc1NS(=O)(=O)c1ccc(F)cc1F` yields TGI of 11.8 µM

Query O=c1n(CC2CS2)c2ccccc2n1CC1CS1 (stereo not given) yields TGI of > 100 µM

Query `CN(Cc1cnc2nc(N)nc(N)c2n1)c1ccc(C(=O)NCCCC(=O)O)cc1` yields TGI of > 100 µM

* * *

tested on: TK-10 renal; assay: NCI tumour cell line growth inhibition, 48 h
observedProperty: TGI

Item Cc1cc(C)c2c(c1)N(C)c1ncnc(-n3cnc4cc(C)ccc43)c1CC2C (stereo not drawn) ; assay system TK-10 renal; TGI reported as > 100 µM

Item `Cn1c(=O)n(C2(C)CSC2)c2ccccc21` ; assay system TK-10 renal; TGI reported as > 100 µM

Item `COc1ccc2nc3cc(Cl)ccc3c(NCCCCCC(=O)NC(COc3ccc4ccc5cccnc5c4n3)COc3ccc4ccc5cccnc5c4n3)c2c1` ; assay system TK-10 renal; TGI reported as 32 µM

Item `COc1cc(CC(=O)O)c([N+](=O)[O-])cc1OC` ; assay system TK-10 renal; TGI reported as > 100 µM

Item `O=C1c2ccccc2C(=O)N1NC1=NCCN1` ; assay system TK-10 renal; TGI reported as > 100 µM

Item `Cc1c(C(=O)c2ccccc2)[n+](=O)c2cc(F)c(F)cc2n1[O-]` ; assay system TK-10 renal; TGI reported as 17.5 µM

Item `Cc1cc(C)nc(NS(=O)(=O)c2ccc(NC(=O)COC(=O)c3cccc4c(=O)c5ccccc5[nH]c34)cc2)n1` ; assay system TK-10 renal; TGI reported as > 100 µM

Item `C#CCn1c(=O)ccn(/C(=C/C(=O)OCC)C(=O)OCC)c1=O` ; assay system TK-10 renal; TGI reported as 3.68 µM

* * *

test system: NCI/ADR-RES ovarian; experiment: NCI tumour cell line growth inhibition, 48 h
Provide the reported TGI of each item.
Return type: number; implicit unit µM.

Item `O=C(CCN1CCCN(c2cnc3ccccc3n2)CC1)c1csc2ccccc12` ; assay system NCI/ADR-RES ovarian; TGI reported as 49.5

Item CC(C)C1=CC2=C(C(=O)C1=O)C13CCCC(C)(C)C1CC2OC3=O (stereo unspecified) ; assay system NCI/ADR-RES ovarian; TGI reported as 40.1

Item `CCCCCCc1cc2cc(C(=O)Nc3cccc(F)c3)c(=N)oc2cc1O` ; assay system NCI/ADR-RES ovarian; TGI reported as 7.54

Item `c1ccc(/C(=N/Nc2ccccn2)c2cccnn2)cc1` ; assay system NCI/ADR-RES ovarian; TGI reported as 13.2

Item `Nc1c(C(=O)Nc2cccc(C(F)(F)F)c2)sc2nc3c(cc12)CCCCCC3` ; assay system NCI/ADR-RES ovarian; TGI reported as 10.9

* * *

tested on: MDA-MB-231 breast; experiment: NCI tumour cell line growth inhibition, 48 h; in the data active = GI50 below about 0.43 µM; inactive = the rest
I would appreciate it if you answered using one of these outcomes: active, inactive

What call does the record list for `COc1cc(N2CCC(N)CC2)ccc1Nc1ncc(Cl)c(-c2c[nH]c3ccccc23)n1` ?
inactive

What call does the record list for CCCCCCCCCCCCCCCCCC[S+](C)CC (stereo unspecified) ?
inactive

What call does the record list for CO/C(=C1/NC(=O)C(Cc2ccc(O)c(Br)c2)N(C)C(=O)C(C)NC(=O)CCC/C=C(\C)CCC(C)OC1=O)c1ccccc1 (stereo unspecified) ?
active

What call does the record list for `COc1ncc(-c2ccc3nccc(C#CCCCCC(=O)NO)c3c2)cc1NS(=O)(=O)c1ccc(F)cc1F` ?
inactive

What call does the record list for CC[C@@H](C)/C=C(C)/C=C/C(=O)c1c(O)c(-c2ccc(O)cc2)cn(OC2CC(=O)CCC(C)OC(=O)CC2O)c1=O (stereo partly specified) ?
inactive

What call does the record list for `CCCCCCCCCCCCCCCCCCOc1ccccc1COP(=O)(O)OOCC[N+](C)(C)C` ?
inactive

What call does the record list for CCN(CC)CC(O)c1cc(-c2ccc(Cl)cc2)nc2c(C)c(Cl)ccc12 (stereo unspecified) ?
inactive

What call does the record list for `C[C@]12CC[C@@H]3c4ccc(OC(=O)N(CCCl)CCCl)cc4CC[C@H]3[C@@H]1CC[C@@H]2OP(=O)(O)O` ?
inactive

What call does the record list for `COc1c(B(O)O)cccc1-c1nc2c(F)cc3n[nH]c(C)c3c2c2c1CCCC2` ?
active

What call does the record list for O=C1OCC2=C1C(c1cccc(Cl)c1)c1cc3c(cc1N2CCO)CCC3 (stereo unspecified) ?
active

What call does the record list for O=C(NN1C(=O)CSC1c1c(Cl)cccc1Cl)C(O)c1ccccc1 (stereo unspecified) ?
inactive

* * *

tested on: NCI-H522 lung; assay: NCI tumour cell line growth inhibition, 48 h
Provide the reported TGI of each item.

Query `COC(=O)c1c2c(cc3c1CC1(C3)Cc3cc4c(c(C(=O)OC)c3C1)CCC4)CCC2` yields TGI of > 100 µM

Query Clc1ccccc1C1SCc2nc3ccccc3n21 (centres undefined) yields TGI of 49.5 µM

Query CC(N)C(C)c1ccccc1 (centres undefined) yields TGI of > 100 µM

Query `OC(Cc1cc(CC(O)(C(F)(F)F)C(F)(F)F)nc(CC(O)(C(F)(F)F)C(F)(F)F)c1)(C(F)(F)F)C(F)(F)F` yields TGI of 8.98 µM

* * *

Provide the reported TGI of each item.
test system: OVCAR-3 ovarian; assay: NCI tumour cell line growth inhibition, 48 h
Return type: number; implicit unit µM.

Query `C#CCNC(=O)CC[C@@H](C)[C@H]1CC[C@H]2[C@@H]3CC[C@@H]4CC(=O)CC[C@]4(C)[C@H]3CC[C@]12C` yields TGI of 36.1

Query `COc1cc2c(cc1OCCCN1CCN(C(=S)SCCC(C#N)(c3ccccc3)c3ccccc3)CC1)N=C[C@@H]1CCCN1C2=O` yields TGI of 1.26

Query `COc1ccc(-c2cc(=O)c3cc(O)ccc3o2)c(OC)c1OC` yields TGI of 46.3

Query `CC(=O)Nc1ccc(C2=N/C(=C\c3ccc(Cl)cc3)C(=O)O2)cc1` yields TGI of 86.7

Query `COc1ncc(-c2ccc3nccc(C#CCCCCC(=O)NO)c3c2)cc1NS(=O)(=O)c1ccc(F)cc1F` yields TGI of 2.52

Query `COC(=O)[C@]12CC[C@@H](C)[C@H](C)[C@@H]1C1=CC[C@@H]3[C@@](C)(CC#N)C4=C(C[C@@]3(C)[C@]1(C)CC2)OC[C@]4(C)C=O` yields TGI of 12.2

Query `OC(Cc1cc(CC(O)(C(F)(F)F)C(F)(F)F)nc(CC(O)(C(F)(F)F)C(F)(F)F)c1)(C(F)(F)F)C(F)(F)F` yields TGI of 1.96

Query `COc1cc(N(CCCl)CCCl)ccc1/C=N\NC(=O)c1cccnc1` yields TGI of 50.4
